System: OVCAR-8
Test: NCI tumour cell line growth inhibition, 48 h
Active and inactive are the calls of the source. Cut-off read from the data, not from the text of the source: active = GI50 up to about 1.1 µM and inactive = higher.
experimental-readout: GI50

{"columns": ["compound", "recorded-value"],
 "data": [
  ["CC1OC(OC2C(O)COC(OC3C(C)OC(OC4C(OC(=O)[C@]56CCC(C)(C)C[C@@H]5C5=CCC7[C@@]8(C)C[C@H](O)[C@H](OC9OC(CO)C(O)C(OC%10OC(CO)C(O)C(O)C%10O)C9O)[C@@](C)(CO)[C@@H]8CC[C@@]7(C)[C@]5(C)CC6)OCC(O)C4O)C(O)C3O)C2O)C(O)C(O)C1O (stereo partly drawn)", "17 µM (inactive)"],
  ["NC(Cc1ccc(OCc2ccccc2)cc1)C(=O)NC(Cc1ccccc1)C(=O)Oc1c(Cl)c(Cl)c(Cl)c(Cl)c1Cl (stereo not drawn)", "16.5 µM (inactive)"],
  ["Cc1cc(=O)n2nc(CSc3nnc(S)s3)sc2n1", "> 100 µM (inactive)"]
]}

* * *

System: K562
Test: NCI tumour cell line growth inhibition, 48 h
Calls of active or inactive are those of the source. Cut-off read from the data, not from the text of the source: active = GI50 up to about 1.1 µM and inactive = higher.

{"columns": ["compound", "GI50"],
 "data": [
  ["Cc1c2c(n3c(nc4ccccc43)c1C#N)N(c1ccc(Cl)cc1)CC2", "> 100 µM (inactive)"],
  ["COc1ccc(-c2ccc(C(=O)C=P(c3ccccc3)(c3ccccc3)c3ccccc3)cc2)cc1", "5 µM (inactive)"],
  ["O=C(O)Cc1ccc2c(c1)/C(=C1/Nc3ccccc3C1=O)C(=O)N2", "19.2 µM (inactive)"],
  ["O=C1N(c2ccccc2)C(=S)/C(=C/c2ccc(Cl)cc2)N1c1ccc(Cl)cc1", "41.9 µM (inactive)"],
  ["CC1(C)CC(O)C(C)(C)[C@@H](O)C1 (some centres undefined)", "> 100 µM (inactive)"],
  ["O=c1c2ccccc2sc2nc(CCl)nn12", "2.32 µM (inactive)"],
  ["COC(=O)C1=C(OC(=O)/C(=C/c2c(F)cccc2F)c2ccccc2)C(C(=O)OC)[C@@]2(O)[C@@H](C(=O)OC)[C@H](C)C[C@@H]1[C@@H]2C(=O)OC (some centres undefined)", "> 100 µM (inactive)"],
  ["O=C1C=C(Br)c2c(Br)sc(Br)c21", "4.67 µM (inactive)"],
  ["C[C@@H](c1ccccc1)C(CC#N)[C@H]1CCC[C@]1(O)C#Cc1ccc2c(c1)OCO2 (some centres undefined)", "18.1 µM (inactive)"],
  ["CNC(=O)CNC(=O)CCC(=O)N(C)C", "> 100 µM (inactive)"],
  ["O=c1c2cccnc2ncn1CCCN1CCCC1", "> 100 µM (inactive)"],
  ["CC(=O)O[C@@H]1CO[C@H]2O[C@H]3[C@@H](C(C=O)=C[C@H](O)[C@@H]4C5=C(C(C)C)CC[C@]5(C)CC[C@@]34C)[C@@]2(O)C1=O [STRIATIN E]", "0.0869 µM (active)"],
  ["CC1=CC(=O)/C(=C(/C)NCCN(CCN/C(C)=C2\\C(=O)C=C(C)OC2=O)CCN/C(C)=C2\\C(=O)C=C(C)OC2=O)C(=O)O1", "> 100 µM (inactive)"],
  ["Oc1ccncc1-c1cnccc1O", "> 100 µM (inactive)"],
  ["N#Cc1nc(-c2ccccn2)c(-c2ccccn2)nc1C#N", "5.85 µM (inactive)"],
  ["CC1(C)OCC(COC(=O)NCn2cc(-c3ccccc3)nn2)O1 (centres undefined)", "> 100 µM (inactive)"],
  ["C[n+]1c(-c2ccc(/C=N/Nc3n[nH]c(=S)n3N/N=C/c3ccc(-c4cn5ccccc5[n+]4C)cc3)cc2)cn2ccccc21", "> 100 µM (inactive)"],
  ["O=C1NC(=O)C(C(=O)C(=O)Nc2ccc(Cl)cc2Cl)C(=O)N1", "> 100 µM (inactive)"],
  ["NC(Cc1ccc(OCc2ccccc2)cc1)C(=O)NC(Cc1ccccc1)C(=O)Oc1c(Cl)c(Cl)c(Cl)c(Cl)c1Cl (centres undefined)", "53.1 µM (inactive)"]
]}

Source listed as ChEMBL document CHEMBL1201862.
